Parameter: pEC50. Scope: all listed entries.
Molecular target: Y5R (Homo sapiens, UniProt Q15761)
Sequence (Q15761 1-445): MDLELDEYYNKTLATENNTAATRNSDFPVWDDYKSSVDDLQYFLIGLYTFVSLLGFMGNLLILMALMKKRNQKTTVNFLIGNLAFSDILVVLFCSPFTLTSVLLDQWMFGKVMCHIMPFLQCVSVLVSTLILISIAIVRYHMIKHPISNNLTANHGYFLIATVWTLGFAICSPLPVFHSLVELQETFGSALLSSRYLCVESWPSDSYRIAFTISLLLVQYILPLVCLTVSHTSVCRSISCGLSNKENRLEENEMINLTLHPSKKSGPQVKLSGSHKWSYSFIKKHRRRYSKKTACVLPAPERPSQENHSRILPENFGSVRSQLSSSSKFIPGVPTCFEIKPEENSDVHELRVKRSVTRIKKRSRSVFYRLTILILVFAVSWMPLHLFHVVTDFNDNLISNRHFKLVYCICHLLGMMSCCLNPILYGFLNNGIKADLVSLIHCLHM
Test: Ca flux assay (FLIPR), Y5R
pEC50: −log10 of the molar value.
Attribute measured: pEC50

INSERT INTO results (compound, attribute_measured, value_relation_sign, test_result) VALUES
  ('CC[C@H](C)[C@H](NC(C)=O)C(=O)N[C@@H](CCCCN)C(=O)N1CCN(c2nc3ncn(CC(=O)N[C@@H](CCCNC(=N)N)C(=O)N[C@@H](Cc4c[nH]cn4)C(=O)N[C@@H](Cc4ccc(O)cc4)C(=O)N[C@@H](CC(C)C)C(=O)N[C@@H](CC(N)=O)C(=O)N[C@@H](Cc4c[nH]c5ccccc45)C(=O)N[C@H](C(=O)N[C@H](C(=O)N[C@@H](CCCNC(=N)N)C(=O)N[C@@H](CCC(N)=O)C(=O)N(C)[C@@H](CCCNC(=N)N)C(=O)N[C@@H](Cc4ccc(O)cc4)C(N)=O)[C@@H](C)O)C(C)C)c3c(=O)[nH]2)CC1 [Example 9]', 'pEC50', '<', 5.05),
  ('CC[C@H](C)[C@H](NC(C)=O)C(=O)N[C@@H](CCCCN)C(=O)N1CCCN(c2ccc3ncn(CC(=O)N[C@@H](CCCNC(=N)N)C(=O)N[C@@H](Cc4c[nH]cn4)C(=O)N[C@@H](Cc4ccc(O)cc4)C(=O)N[C@@H](CC(C)C)C(=O)N[C@@H](CC(N)=O)C(=O)N[C@@H](Cc4c[nH]c5ccccc45)C(=O)N[C@H](C(=O)N[C@H](C(=O)N[C@@H](CCCNC(=N)N)C(=O)N[C@@H](CCC(N)=O)C(=O)N(C)[C@@H](CCCNC(=N)N)C(=O)N[C@@H](Cc4ccc(O)cc4)C(N)=O)[C@@H](C)O)C(C)C)c(=O)c3c2)CC1 [Example 8]', 'pEC50', '=', 5.22);

---

target: UniProtKB P50391; assay: Ca flux assay (FLIPR), Y4R
Sequence (P50391 whole entry): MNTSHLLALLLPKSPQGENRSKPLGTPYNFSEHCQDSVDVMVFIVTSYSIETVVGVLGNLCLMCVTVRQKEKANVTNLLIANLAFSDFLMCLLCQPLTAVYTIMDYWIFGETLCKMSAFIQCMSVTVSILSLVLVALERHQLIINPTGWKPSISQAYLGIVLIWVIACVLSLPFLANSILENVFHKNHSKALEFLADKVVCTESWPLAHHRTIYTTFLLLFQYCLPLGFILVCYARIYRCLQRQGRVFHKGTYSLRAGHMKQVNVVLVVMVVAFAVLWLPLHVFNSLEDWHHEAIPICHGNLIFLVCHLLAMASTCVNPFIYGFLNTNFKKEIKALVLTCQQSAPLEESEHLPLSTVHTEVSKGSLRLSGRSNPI
Attribute measured: EC50

INSERT INTO measurements (chemical_smiles, test_result) VALUES
  ('CC[C@H](C)[C@H](NC(C)=O)C(=O)N[C@@H](CCCCN)C(=O)N1CCN(c2ncc3c(ncn3CC(=O)N[C@@H](CCCNC(=N)N)C(=O)N[C@@H](Cc3c[nH]cn3)C(=O)N[C@@H](Cc3ccc(O)cc3)C(=O)N[C@@H](CC(C)C)C(=O)N[C@@H](CC(N)=O)C(=O)N[C@@H](Cc3c[nH]c4ccccc34)C(=O)N[C@H](C(=O)N[C@H](C(=O)N[C@@H](CCCNC(=N)N)C(=O)N[C@@H](CCC(N)=O)C(=O)N(C)[C@@H](CCCNC(=N)N)C(=O)N[C@@H](Cc3ccc(O)cc3)C(N)=O)[C@@H](C)O)C(C)C)n2)CC1', '> 5 µM');
